Target: T1, recombinant SARS-CoV-2 Spike RBD domain, BA.2 variant (SARS-CoV-2)
T1 construct: also called RBD BA.2. variant
Test: ELISA on coated RBD
Quick rule for you: Binding AUC under 30 gets Satisfied, anything else gets Not satisfied.

Query: For SPK002M C3 antibody (antibody, human IgG1, kappa, V domains shown) VH: EVQLVESGGGLIQPGGSLRLSCAASIITVTSNYMSWVRQAPGKGLEWVSVIYPGGSTFYADSVKGRFTISTDNSKNTLYLQMNSLRAEDTAVYYCARDLVVYGMDVWGQGTTVTVSS VL: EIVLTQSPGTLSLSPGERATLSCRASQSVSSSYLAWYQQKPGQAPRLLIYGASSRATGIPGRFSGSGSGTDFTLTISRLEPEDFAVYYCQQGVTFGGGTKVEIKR , is the recorded Binding AUC below the cut-off of 30?
Result: Satisfied

Query: For SPK002M C2 antibody (antibody, human IgG1, kappa, V domains shown) VH: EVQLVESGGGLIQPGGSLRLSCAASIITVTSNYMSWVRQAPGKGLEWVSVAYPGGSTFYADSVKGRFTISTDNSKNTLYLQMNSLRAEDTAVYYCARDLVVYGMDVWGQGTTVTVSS VL: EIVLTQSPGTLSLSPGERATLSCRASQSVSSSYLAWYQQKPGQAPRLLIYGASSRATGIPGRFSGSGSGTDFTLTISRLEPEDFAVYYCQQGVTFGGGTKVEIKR , is the recorded Binding AUC below the cut-off of 30?
Result: Satisfied

Query: For SPK002M B2 antibody (antibody, human IgG1, kappa, V domains shown) VH: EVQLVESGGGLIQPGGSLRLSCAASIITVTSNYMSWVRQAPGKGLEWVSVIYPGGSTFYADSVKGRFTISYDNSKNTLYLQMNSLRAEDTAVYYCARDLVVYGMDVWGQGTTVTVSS VL: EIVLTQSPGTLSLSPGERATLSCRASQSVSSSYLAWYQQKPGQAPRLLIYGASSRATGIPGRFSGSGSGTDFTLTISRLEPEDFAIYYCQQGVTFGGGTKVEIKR , is the recorded Binding AUC below the cut-off of 30?
Result: Satisfied

Query: For SPK002M A2 antibody (antibody, human IgG1, kappa, V domains shown) VH: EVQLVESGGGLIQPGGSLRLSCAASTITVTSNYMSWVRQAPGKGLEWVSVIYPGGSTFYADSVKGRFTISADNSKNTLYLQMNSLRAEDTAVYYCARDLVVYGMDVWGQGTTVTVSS VL: EIVLTQSPGTLSLSPGERATLSCRASQGVSSSYLAWYQQKPGQAPRLLIYGASSRATGIPGRFSGSGSGTDFTLTISRLEPEDFAVYYCQQGVTFGGGTKVEIKR , is the recorded Binding AUC below the cut-off of 30?
Result: Not satisfied

Query: For SPK002M A4 antibody (antibody, human IgG1, kappa, V domains shown) VH: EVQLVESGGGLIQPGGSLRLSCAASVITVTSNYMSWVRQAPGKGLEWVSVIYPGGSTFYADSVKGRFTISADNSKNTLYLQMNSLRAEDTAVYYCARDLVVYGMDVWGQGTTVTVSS VL: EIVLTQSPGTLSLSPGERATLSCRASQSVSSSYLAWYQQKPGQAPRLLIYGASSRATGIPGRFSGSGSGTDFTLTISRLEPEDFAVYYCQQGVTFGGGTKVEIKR , is the recorded Binding AUC below the cut-off of 30?
Result: Satisfied

Query: For SPK002M A1 antibody (antibody, human IgG1, kappa, V domains shown) VH: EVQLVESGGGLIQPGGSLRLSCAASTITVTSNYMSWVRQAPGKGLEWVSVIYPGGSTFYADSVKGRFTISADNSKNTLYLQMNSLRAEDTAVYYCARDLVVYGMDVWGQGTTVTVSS VL: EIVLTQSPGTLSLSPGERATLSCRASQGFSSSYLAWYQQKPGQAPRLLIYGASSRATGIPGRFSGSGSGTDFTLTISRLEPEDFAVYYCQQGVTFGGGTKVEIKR , is the recorded Binding AUC below the cut-off of 30?
Result: Not satisfied

Query: For SPK002M C1 antibody (antibody, human IgG1, kappa, V domains shown) VH: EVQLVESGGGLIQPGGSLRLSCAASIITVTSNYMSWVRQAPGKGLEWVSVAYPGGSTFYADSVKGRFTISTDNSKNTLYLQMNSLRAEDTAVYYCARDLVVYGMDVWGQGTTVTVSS VL: EIVLTQSPGTLSLSPGERATLSCRASQSVSDSYLAWYQQKPGQAPRLLIYGASSRATGIPGRFSGSGSGTDFTLTISRLEPEDFAVYYCQYGVTFGGGTKVEIKR , is the recorded Binding AUC below the cut-off of 30?
Result: Satisfied

Query: For SPK002M A5 antibody (antibody, human IgG1, kappa, V domains shown) VH: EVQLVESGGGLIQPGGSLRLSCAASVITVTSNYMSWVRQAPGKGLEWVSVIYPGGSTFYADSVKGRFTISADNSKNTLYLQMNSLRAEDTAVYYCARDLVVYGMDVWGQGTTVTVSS VL: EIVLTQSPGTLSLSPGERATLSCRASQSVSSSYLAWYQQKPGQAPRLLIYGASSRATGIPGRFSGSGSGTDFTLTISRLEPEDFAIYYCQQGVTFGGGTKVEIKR , is the recorded Binding AUC below the cut-off of 30?
Result: Satisfied

Query: For SPK002M B1 antibody (antibody, human IgG1, kappa, V domains shown) VH: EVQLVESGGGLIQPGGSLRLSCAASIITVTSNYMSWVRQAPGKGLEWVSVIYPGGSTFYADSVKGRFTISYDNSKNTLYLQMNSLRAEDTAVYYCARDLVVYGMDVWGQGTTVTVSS VL: EIVLTQSPGTLSLSPGERATLSCRASQSVSDSYLAWYQQKPGQAPRLLIYGASSRATGIPGRFSGSGSGTDFTLTISRLEPEDFAIYYCQYGVTFGGGTKVEIKR , is the recorded Binding AUC below the cut-off of 30?
Result: Satisfied

Query: For SPK002M A3 antibody (antibody, human IgG1, kappa, V domains shown) VH: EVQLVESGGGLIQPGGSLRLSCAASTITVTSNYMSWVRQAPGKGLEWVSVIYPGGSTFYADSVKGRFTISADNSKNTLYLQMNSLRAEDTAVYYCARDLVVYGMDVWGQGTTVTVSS VL: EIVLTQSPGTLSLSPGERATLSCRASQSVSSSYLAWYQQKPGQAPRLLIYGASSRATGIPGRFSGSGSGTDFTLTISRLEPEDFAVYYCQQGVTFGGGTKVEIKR , is the recorded Binding AUC below the cut-off of 30?
Result: Not satisfied

The origin of these recorded values is patent US12281155.
